B1: TMEM59 peptide (residues 268–280), wild type [modified: long spacer (Tds) at the N-terminal end, used for immobilisation; long spacer (Tds) at the N-terminal end, used for immobilisation] [not stated] / GST-HA-ATG16L1(231–607) … (parent)
chain 1: PLPVEQDDDIEVIVDETSDHTEETSPVRAISRAATKRLSQPAGGLLDSITNIFGRRSVSSFPVPQDNVDTHPGSGKEVRVPATALCVFDAHDGEVNAVQFSPGSRLLATGGMDRRVKLWEVFGEKCEFKGSLSGSNAGITSIEFDSAGSYLLAASNDFASRIWTVDDYRLRHTLTGHSGKVLSAKFLLDNARIVSGSHDRTLKLWDLRSKVCIKTVFAGSSCNDIVCTEQCVMSGHFDKKIRFWDIRSESIVREMELLGKITALDLNPERTELLSCSRDDLLKVIDLRTNAIKQTFSAPGFKCGSDWTRVVFSPDGSYVAAGSAEGSLYIWSVLTGKVEKVLSKQHSSSINAVAWSPSGSHVVSVDKGCKAVLWAQY
chain 2: YVPSEKLSIYGDL

- Variants of: B1
- procedure.details: peptide microarray
- setup.conditions: with GST-HA-ATG16L1(231–607) [human]; ligand 800, 600, 400 nM; parent: 100
property: percent of parent (% WT)
Give the quantity in % WT, number only.

Consider the reported percent of parent for these variants:
- variant.id: "chain 2 I9H"
  property: "percent of parent"
  observed.measurement: 145
- variant.id: "chain 2 Y10P"
  property: "percent of parent"
  observed.measurement: 3

In: Looking for the measured percent of parent of chain 2 P3K , can you help?
Out: 181

In: Looking for the measured percent of parent of chain 2 K6T , can you help?
Out: 12

In: Looking for the measured percent of parent of chain 2 V2M , can you help?
Out: 28

In: Looking for the measured percent of parent of chain 2 S4Q , can you help?
Out: 94

In: Looking for the measured percent of parent of chain 2 G11T , can you help?
Out: 117

In: Looking for the measured percent of parent of chain 2 L13N , can you help?
Out: 30

In: Looking for the measured percent of parent of chain 2 I9W , can you help?
Out: 200
